Condition Summary: IVIVE derived median over all positive imaging endpoints; human simulation; Table 2
Overview of reported OED across a group of molecules:
In your response, the unit should come after the numeric value.

In the examples that follow, each entry is paired with its recorded OED.
INSERT INTO assay_data (molecule, observed_measurement) VALUES
  ('CCCC(CCC)C(=O)O', '92.7 mg/kg/day'),
  ('O=C(NC1CCN(CCCCC2(C(=O)NCC(F)(F)F)c3ccccc3-c3ccccc32)CC1)c1ccccc1-c1ccc(C(F)(F)F)cc1 [lomitapide]', '1333 mg/kg/day'),
  ('CN(C)[C@@H]1C(O)=C(C(N)=O)C(=O)[C@@]2(O)C(O)=C3C(=O)c4c(O)cccc4[C@@](C)(O)[C@H]3C[C@@H]12', '30.2 mg/kg/day'),
  ('CN(C)C(=N)N=C(N)N', '6778 mg/kg/day');

Reported OED of `CCCCc1oc2ccccc2c1C(=O)c1cc(I)c(OCCN(CC)CC)c(I)c1` : 15.8 mg/kg/day

Reported OED of `O=c1[nH]c(=O)n([C@@H]2O[C@H](CO)[C@@H](O)[C@@H]2F)cc1I` : 5.6 mg/kg/day

Reported OED of `C=C(C)[C@H]1Cc2c(ccc3c2O[C@@H]2COc4cc(OC)c(OC)cc4[C@@H]2C3=O)O1` : 0.3 mg/kg/day

----------
Experiment: Published in vivo pharmacokinetics (Css, clearance)
Condition Summary: hepatocytes (back-calculated, no incubation); in vitro intrinsic hepatic clearance calculated from in vivo clearance with formula 3; rabbit; read-out: Calculated Clint (ul/min/10^6 cells)
Readout Name: hepatocyte CLint

Reported hepatocyte CLint of `CC1=CC(=O)c2ccccc2C1=O` : 58.3 µL/min/1e6 cells

----------
Test system: HepaRG cells
Condition Summary: HepaRG 24 h, population level; threshold ± 2 standard deviations of the response at the two lowest concentrations
Readout Name: Oxidative stress response (in words)

INSERT INTO assay_data (compound, assay_target, observed_measurement) VALUES
  ('O=C(NC1CCN(CCCCC2(C(=O)NCC(F)(F)F)c3ccccc3-c3ccccc32)CC1)c1ccccc1-c1ccc(C(F)(F)F)cc1 [lomitapide]', 'HepaRG cells', 'no changes were observed'),
  ('CCCC(CCC)C(=O)O [valproic acid]', 'HepaRG cells', 'no changes were observed');

----------
Overview of reported log10(EC50) across a group of compounds:
Tested on: HepaRG cells
Experiment: Cell viability assessment (WST-1 assay)
Assay type: cell-based, human
Condition Summary: Homo sapiens, WST-1, 24 h exposure, food-related chemicals and pesticides, 95% CI in brackets, read-out: EC50 (95% CI) in µM from cell viability assay
A difference of one corresponds to tenfold EC50; all values are log10 with EC50 in µM.

In the examples that follow, each entry is paired with its recorded log10(EC50).
INSERT INTO results (compound, observed_measurement) VALUES
  ('CC1=CC[C@@H](C(C)(C)O)CC1 [Alpha-terpineol]', 3.41),
  ('CC(C)(c1ccc(O)cc1)c1ccc(O)cc1 [Bisphenol A]', 2.37),
  ('N#Cc1nn(-c2c(Cl)cc(C(F)(F)F)cc2Cl)c(N)c1[S+]([O-])C(F)(F)F (stereo not drawn) [Fipronil]', 1.32),
  ('O=C(CO)[C@@H](O)[C@H](O)[C@H](O)CO [Fructose]', 0.82),
  ('C[C@H](CCC(=O)O)[C@H]1CC[C@H]2[C@@H]3CC[C@@H]4C[C@H](O)CC[C@]4(C)[C@H]3C[C@H](O)[C@]12C [Deoxycholic acid]', 2.39);

From here, focus on the item given below.
Reported log10(EC50) of Cc1cccc(C)c1N(Cn1cccn1)C(=O)CCl [Metazachlor] : 2.26

----------
Condition Summary: IVIVE derived median with 95% CI, from BMC of positive imaging endpoint; oral, daily dosing; Table 1
Readout Name: OED (mg/kg BW/day)

In the examples that follow, each entry is paired with its recorded OED (mg/kg BW/day).
INSERT INTO assay_data (compound_string, readout_name, observed_measurement) VALUES
  ('O=c1[nH]c(=O)c2[nH]c(=O)[nH]c2[nH]1', 'OED (mg/kg BW/day)', '87.3 (95% CI 67.3–150.6) mg/kg BW/day'),
  ('CCNc1nc(Cl)nc(NC(C)C)n1', 'OED (mg/kg BW/day)', '0.5 (95% CI 0.2–1.7) mg/kg BW/day'),
  ('CCCCN(CCCC)SN(C)C(=O)Oc1cccc2c1OC(C)(C)C2', 'OED (mg/kg BW/day)', '10.4 (95% CI 7–19.3) mg/kg BW/day');

From here, focus on the item given below.
Reported OED (mg/kg BW/day) of `O=C(O)c1cc(=O)[nH]c(=O)[nH]1` : 61.2 (95% CI 21.1–134) mg/kg BW/day

----------
Experiment: Published in vivo pharmacokinetics (Css, plasma concentration, clearance)
Condition Summary: hepatocytes (back-calculated, no incubation); in vitro intrinsic hepatic clearance calculated from in vivo clearance with formula 3; human; read-out: Calculated Clint (ul/min/10^6 cells)
Readout Name: hepatocyte CLint (µL/min/1e6 cells)
Entry rule: numbers only, all in µL/min/1e6 cells.

In the examples that follow, each entry is paired with its recorded hepatocyte CLint.
INSERT INTO assay_data (molecule, observed_measurement) VALUES
  ('O=C(NC1CCN(CCCCC2(C(=O)NCC(F)(F)F)c3ccccc3-c3ccccc32)CC1)c1ccccc1-c1ccc(C(F)(F)F)cc1 [lomitapide]', 48.3),
  ('O=c1[nH]c(=O)n([C@@H]2O[C@H](CO)[C@@H](O)[C@@H]2F)cc1I [fialuridine]', 0.173);

From here, focus on the item given below.
Reported hepatocyte CLint of CN(C)C(=N)N=C(N)N [metformin] : 4.01

Source of measurements: paper PMC10182956
